Molecular target: Glucose-dependent insulinotropic receptor (Homo sapiens)
Assay: off-target GPR119 activation – cell-based, PathHunter beta-arrestin, luminescence, set 2, counter-screen for GPR151 activator project, confirmation (AID 1508607)
Conditions: GPR119 PathHunter beta-arrestin cells, 90 min, at 11.2 µM
The whole screen tested about 2,300 compounds, of which about 20 (0.9%) were called active.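 Rule for the calls: active = mean percent activation across replicates above the counterscreen hit cutoff of 9.17%; inactive = the rest.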 The list comes from a sample in which actives are over-represented; it also holds close analogues and randomly drawn compounds.
Assign a class; possible classes are true (active), false (inactive)

Compound | Tested System | Group
COc1ccc(CN2CCNCC2CCO)c(C)c1C (centres undefined) | Glucose-dependent insulinotropic receptor (Homo sapiens) | false

Query string: I'd appreciate the recorded outcome for `O=C(NCc1ccc(Cl)cc1)C(Cl)(Cl)Cl` from this test.
Result string: false

Query string: I'd appreciate the recorded outcome for C[C@H]1CC[C@@H]2[C@@H](C)[C@H]3[C@H](CC4[C@@H]5CC=C6CC(O[C@@H]7O[C@H](CO)C(O[C@@H]8O[C@@H](C)[C@H](O)[C@@H](O)[C@H]8O)[C@H](O)[C@H]7O[C@@H]7O[C@@H](C)[C@H](O)[C@@H](O)[C@H]7O)CC[C@]6(C)[C@H]5CC[C@@]43C)N2C1 (some centres undefined) from this test.
Result string: true

Query string: I'd appreciate the recorded outcome for O=C(NC(O)C(Cl)(Cl)Cl)c1ccccc1 (centres undefined) from this test.
Result string: false
